Source of measurements: patent US10174035B2

# reported IC50; entries follow
Molecular target: recombinant PI3K δ enzyme (Homo sapiens (Human), UniProt O00329)
Sequence (O00329 whole entry, species assumed): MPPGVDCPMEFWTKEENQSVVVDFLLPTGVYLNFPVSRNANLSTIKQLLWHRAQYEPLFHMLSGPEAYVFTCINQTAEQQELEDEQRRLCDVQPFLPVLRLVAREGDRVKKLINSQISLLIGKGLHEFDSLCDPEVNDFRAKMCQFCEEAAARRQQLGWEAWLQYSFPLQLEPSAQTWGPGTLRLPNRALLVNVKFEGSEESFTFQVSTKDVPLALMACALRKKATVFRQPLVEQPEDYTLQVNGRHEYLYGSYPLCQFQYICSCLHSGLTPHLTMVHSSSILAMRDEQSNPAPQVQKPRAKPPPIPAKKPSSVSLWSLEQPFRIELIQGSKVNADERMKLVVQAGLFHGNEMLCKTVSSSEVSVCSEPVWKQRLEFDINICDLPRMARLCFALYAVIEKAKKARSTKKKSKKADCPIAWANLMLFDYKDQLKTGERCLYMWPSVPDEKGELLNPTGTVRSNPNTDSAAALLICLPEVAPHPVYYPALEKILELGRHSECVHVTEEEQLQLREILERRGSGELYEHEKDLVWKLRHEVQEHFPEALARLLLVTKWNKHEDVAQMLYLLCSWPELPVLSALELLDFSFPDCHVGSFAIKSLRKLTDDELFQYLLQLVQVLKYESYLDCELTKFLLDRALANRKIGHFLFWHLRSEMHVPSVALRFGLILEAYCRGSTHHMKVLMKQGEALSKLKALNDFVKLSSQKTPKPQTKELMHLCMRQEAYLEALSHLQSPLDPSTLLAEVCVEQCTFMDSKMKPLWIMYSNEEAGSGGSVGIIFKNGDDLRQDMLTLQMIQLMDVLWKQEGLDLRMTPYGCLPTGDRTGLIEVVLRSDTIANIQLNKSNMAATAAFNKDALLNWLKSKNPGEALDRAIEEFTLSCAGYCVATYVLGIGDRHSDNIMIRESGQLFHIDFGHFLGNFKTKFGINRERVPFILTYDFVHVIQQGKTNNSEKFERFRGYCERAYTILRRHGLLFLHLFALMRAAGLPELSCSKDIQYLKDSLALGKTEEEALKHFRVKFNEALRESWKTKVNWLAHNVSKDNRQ
Sequence (P27986 whole entry partner, species assumed): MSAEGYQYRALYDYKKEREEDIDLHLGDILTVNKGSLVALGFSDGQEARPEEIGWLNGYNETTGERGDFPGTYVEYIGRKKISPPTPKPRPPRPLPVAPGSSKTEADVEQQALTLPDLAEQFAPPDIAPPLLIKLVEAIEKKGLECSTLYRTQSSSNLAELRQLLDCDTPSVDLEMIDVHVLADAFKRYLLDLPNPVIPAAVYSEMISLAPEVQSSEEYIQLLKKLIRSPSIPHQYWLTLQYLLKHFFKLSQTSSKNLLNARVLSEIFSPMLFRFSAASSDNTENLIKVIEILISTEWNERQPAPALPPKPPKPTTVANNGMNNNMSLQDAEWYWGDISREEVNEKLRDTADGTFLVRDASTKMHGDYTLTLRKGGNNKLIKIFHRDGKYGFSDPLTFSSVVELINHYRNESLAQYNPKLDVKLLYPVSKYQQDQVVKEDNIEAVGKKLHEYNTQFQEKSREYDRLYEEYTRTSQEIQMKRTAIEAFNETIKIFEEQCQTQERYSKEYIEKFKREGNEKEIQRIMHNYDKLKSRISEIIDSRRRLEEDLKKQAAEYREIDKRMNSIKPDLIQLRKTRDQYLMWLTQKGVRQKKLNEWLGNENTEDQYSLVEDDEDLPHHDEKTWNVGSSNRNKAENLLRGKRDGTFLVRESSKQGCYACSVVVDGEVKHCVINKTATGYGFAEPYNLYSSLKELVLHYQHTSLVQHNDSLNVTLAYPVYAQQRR
Assay: In vitro enzyme assay (Kinase-Glo luminescent kinase assay), PI3Kδ
Type: biochemical
measureName: IC50 (µM)

INSERT INTO measurements (compound, readoutunits, reportedmeasurement) VALUES
  ('Cc1nn(C)cc1-c1nc2c(nc(C(=O)N3CCC(N4CCOCC4)CC3)n2CC2CC2)c(N2CCOCC2)c1F [compound 83]', 'µM', 0.092),
  ('Cc1nn(C)cc1-c1nc2c(nc(C(=O)N3CCC(N4C[C@@H](C)O[C@@H](C)C4)CC3)n2C)c(N2CCOCC2)c1F [compound 112]', 'µM', 0.015),
  ('CCN(CCCN1CCOCC1)C(=O)c1nc2c(N3CCOCC3)nc(-c3cnn(C)c3)nc2[nH]1 [compound 69]', 'µM', 0.061),
  ('C[C@@H]1CN(C2CN(C(=O)c3nc4c(N5CCOCC5)cc(-c5cnn(C)c5)nc4[nH]3)C2)C[C@H](C)O1 [Compound No. 119]', 'µM', 0.005),
  ('C[C@@H]1CN(CCCNC(=O)c2nc3c(N4CCOCC4)nc(-c4cnn(C)c4)nc3[nH]2)C[C@H](C)O1 [compound 75]', 'µM', 0.018),
  ('CN1CCN(CCNC(=O)c2nc3c(N4CCOCC4)nc(-c4cnn(C)c4)nc3[nH]2)CC1 [compound 70]', 'µM', 0.054),
  ('CN1CCC(NC(=O)c2nc3c(N4CCOCC4)nc(-c4cnn(C)c4)nc3[nH]2)CC1 [compound 47]', 'µM', 0.139);
